# runDescription: Extended room temperature storage of treprostinil monohydrate lot D-1007-089 (18-month stability summary: water content, assay/impurity profile)
# Type: physicochemical
# conditionsUsed: Initial, Container 1 (closed), room temperature
assayReadout: 750W93
Give the value; after it, write the unit.

q: So what does the record say about 750W93 for CCCCC[C@H](O)CC[C@@H]1[C@H]2Cc3cccc(OCC(=O)O)c3C[C@H]2C[C@H]1O [TREPROSTINIL Lot# D-1007-089, treprostinil monohydrate] ?
a: 0.1%

---

# runDescription: Extended room temperature storage of treprostinil monohydrate lot D-1007-089 (18-month stability summary: water content, assay/impurity profile)
# Format: physicochemical
# conditionsUsed: 1 Month, Container 2 (covered with Kimwipe), room temperature
assayReadout: TREPROSTINIL Ethyl Ester (%)
Output spec: scalar in %, unitless text.

q: So what does the record say about TREPROSTINIL Ethyl Ester for CCCCC[C@H](O)CC[C@@H]1[C@H]2Cc3cccc(OCC(=O)O)c3C[C@H]2C[C@H]1O [TREPROSTINIL Lot# D-1007-089, treprostinil monohydrate] ?
a: 0.2
